test system: KM12 colon; experiment: NCI-60 one-dose screen, 48 h (100 = growth as untreated, 0 = no growth, -100 = all killed); details: 10 µM unless noted
The panel holds about 83,000 compounds, 20% with a hit somewhere; the sample as a whole holds those more often.
Hi! Could you tag entries with growth below 70% as Met, and those at or above as Not met? Much appreciated.

Task: Please indicate whether the reported growth of COc1ccc(C(=O)/C=C/c2ccccn2)c(O)c1 is strictly below 70%.
Result: Met

Task: # check: growth < 70% for CCCCCN(CCCCC)CCCCCCCCN1CCCc2ccccc21
Result: Not met

Task: Find out if reported growth for CCN(CC)CCCC(C)Nc1ccnc2cc(Cl)c(SCc3ccccc3)cc12 (stereo unspecified) is less than 70%
Result: Met

Task: Please indicate whether the reported growth of CCCCC(CCCCCC(CCCC)C1NC(C)Cc2cc(OC)c(OC)cc21)C1NC(C)Cc2cc(OC)c(OC)cc21 (stereo unspecified) is strictly below 70%.
Result: Met

Task: # check: growth < 70% for O=C(NNc1ccc(-c2ccccc2)nn1)c1ccc(F)cc1
Result: Not met

Task: Say whether its growth is strictly beneath 70%. Entry: c1coc2occoc=2o1
Result: Not met

Task: Please indicate whether the reported growth of CCC(Br)(CC)C(=O)c1ccc(OCC(=O)O)c(Cl)c1Cl is strictly below 70%.
Result: Not met

Task: API: query returns whether the compound falls strictly under 70% in growth. Query: COc1ccc(/C=C/C(=C/c2c(O)[nH]c3cc(Br)ccc23)N=O)cc1
Result: Not met

Task: Consider the compound C/C=C/C1OC23CCCCC2C(C#N)(C(=N)O3)C1(C#N)C#N (stereo unspecified) . Is its growth strictly less than 70%?
Result: Not met

Task: Lab note: confirm whether the reported growth for this compound is below 70%, equality not counting. compound: Cc1ccc(S(=O)(=O)n2cc(C(=O)C(=O)N3CCCCC3)c3ccccc32)cc1
Result: Not met

Task: Just wondering, is growth of Cn1cc(-c2noc(-c3cn(C)c4ncc(Br)cc34)n2)c2cc(Cl)ccc21 below 70%?
Result: Not met

Task: Lab note: confirm whether the reported growth for this compound is below 70%, equality not counting. compound: COc1ccc(-c2cc(-c3ccc(Cl)cc3)nc(SCCCCCCC(=O)NO)n2)cc1
Result: Met

Task: Bench note: check whether COc1ccc(NCc2cn(-c3ccc(C(=O)O)cc3)nc2-c2ccc(C(=O)O)cc2)cc1C(F)(F)F shows growth below 70%
Result: Not met

Task: Strictly below 70%: is that where growth of COc1cc2c(O)n(CCCN3CCOCC3)c3c4cnc5cccc(c(=O)c3c2cc1OC)c54 sits?
Result: Met

Task: State whether 70% exceeds growth recorded for COc1cc2c(c(OC)c1OC)-c1cc(I)c(O)cc1[C@@H](NC(C)=O)CC2 .
Result: Met

Task: Criterion: growth strictly below 70%. Is it met by Brc1ccc(-c2nnc3c4[nH]ccc4ncn23)cc1 ?
Result: Not met

----------
system: PC-3 prostate; assay: NCI-60 one-dose screen, 48 h; conditions: 10 µM unless noted
About 83,000 compounds went through this panel and 20% of them were active in at least one assay; those are over-represented in the sample as a whole. The source made the active and inactive calls. Rule for the calls: active = growth percent below 10; inactive = the rest.
// allowed return values: active, inactive

Task: Status in this test for Cc1ccc(-c2cc(-c3ccc(C)cc3)nc(NCCNc3ccnc4cc(Cl)ccc34)n2)cc1 ?
Result: active

Task: What did this assay record as the result for C[C@H]1[C@H](C)CC[C@]2(C(=O)O)CC[C@]3(C)C(=CC[C@@H]4[C@@]5(C)C/C(=C/c6ccco6)C(=O)C(C)(C)[C@@H]5CC[C@]43C)[C@H]12 ?
Result: active

Task: # outcome recorded in this test, key = CC(C)C1=NOC(=O)C1=Cc1cn(-c2cccnc2)nc1-c1ccccc1
Result: inactive

Task: // outcome(item) with item = CC1=C/C(=C(\c2cc(C)c(O)c(C(=O)O)c2)c2c(Cl)cccc2Cl)C=C(C(=O)O)C1=O
Result: inactive

----------
system: PC-3 prostate; experiment: NCI-60 one-dose screen, 48 h; conditions: 10 µM unless noted
The panel holds about 83,000 compounds, 20% with a hit somewhere; the sample as a whole holds those more often. Calls of active or inactive are those of the source. How the source made its calls: active means growth percent below 10; inactive means the rest.
Can you answer with just one of these options? Y = active, N = inactive

Task: Hi team, can someone confirm the assay call for CC1(C)CC[C@]2(C(N)=O)CC[C@]3(C)C(=CC[C@@H]4[C@@]5(C)C/C(=C/c6ccncc6)C(=O)C(C)(C)[C@@H]5CC[C@]43C)[C@@H]2C1 ?
Result: Y

Task: Which result was noted for this compound in the test: CNc1cc(C(=O)O)nc(NC)n1
Result: N

Task: Test call for this compound, please: O=C1Nc2ccccc2/C1=C/C(=O)c1ccc(N2CCOCC2)cc1
Result: N

Task: Write down the call the test reported for this compound. Item: C#C[C@]1(O)CC[C@H]2[C@@H]3CC=C4c5nc(Nc6ccccc6[N+](=O)[O-])sc5CC[C@]4(C)[C@H]3CC[C@@]21C
Result: N

Task: Field: outcome | Entry: CCOC(=O)c1cc(C(=O)c2ccc(OC)c(OC)c2)n2ccc(-c3ccccn3)cc12
Result: N

----------
system: UO-31 renal; assay: NCI-60 one-dose screen, 48 h (100 = growth as untreated, 0 = no growth, -100 = all killed); conditions: 10 µM unless noted
This is part of a sample that, as a whole, favours compounds with a hit. Of some 83,000 tested, about 20% had one in any assay. Calls of active or inactive are those of the source. Rule for the calls: active = growth percent below 10; inactive = the rest.
parameter: growth

Task: Recorded growth for COc1ccc(C(=O)CCC(=O)O)cc1 , please?
Result: 71.7% (inactive)

Task: Any idea what its growth is? The compound is COc1ncc(-c2ccc3nccc(C#CCCCCC(=O)NO)c3c2)cc1NS(=O)(=O)c1ccc(F)cc1F
Result: 8.08% (active)

Task: Please give the measured growth for this compound: O=C(O)c1cn(C2CC2)c2cc(N3CCN(Cc4cc(Cl)ccc4O)CC3)c(F)cc2c1=O
Result: 40.7% (inactive)

Task: Value lookup for growth; key = Cc1ccc(NC(=S)/N=c2/n(-c3ccccc3)nc3n2CCN3C2=NCCN2)cc1
Result: 92.4% (inactive)

Task: Would you kindly share the measured growth for CCOC(=O)CCC[P+](c1ccccc1)(c1ccccc1)c1ccccc1 ?
Result: 87.5% (inactive)

Task: Please give the measured growth for this compound: C=C(C)[C@@H]1CC[C@]2(C(N)=O)CC[C@]3(C)[C@H](CC[C@@H]4[C@@]5(C)CC[C@H](O)C(C)(C)[C@@H]5CC[C@]43C)[C@@H]12
Result: -100% [100 µM] (active)

Task: Field request: growth | item: CC(=O)OC[C@]12CC[C@@H]([C@@H](C)C(N)=O)[C@@H]1[C@H]1CC[C@@H]3[C@@]4(C)CC[C@H](OC(C)=O)C(C)(C)[C@@H]4CC[C@@]3(C)[C@]1(C)CC2
Result: -97.5% [100 µM] (active)

Task: Recorded growth for CCN(CC)c1ccc2cc(NC(=O)OCCNC(=O)CCNC(=O)[C@H](CC(C)C)NC(=O)C(C)(C)NC(=O)C(C)(C)NC(=O)[C@H](CC(C)C)NC(=O)CCNC(=O)C(C)(C)NC(=O)[C@H](CC(C)C)NC(=O)CCNC(=O)[C@@](C)(CC)NC(=O)[C@H](C)NC(=O)CCNC(=O)C(C)(C)NC(=O)[C@H](C)NC(=O)[C@@H]3CCCN3C(=O)[C@@](C)(CC)NC(=O)[C@H](Cc3ccccc3)NC(=O)C3CCCN3C(=O)C(C)(C)NC(=O)C3CCCN3C(=O)C(C)(C)NC(C)=O)c(=O)oc2c1 (some centres undefined) , please?
Result: -80.5% (active)

Task: Any idea what its growth is? The compound is C[C@H]1[C@H](C)CC[C@]2(C(=O)N3CCN(C)CC3)CC[C@]3(C)C(=CC[C@@H]4[C@@]5(C)C/C(=C/c6ccco6)C(=O)C(C)(C)[C@@H]5CC[C@]43C)[C@H]12
Result: -97.5% [100 µM] (active)

----------
tested on: OVCAR-5 ovarian; assay: NCI-60 one-dose screen, 48 h; conditions: 10 µM unless noted
The panel holds about 83,000 compounds, 20% with a hit somewhere; the sample as a whole holds those more often. Calls of active or inactive are those of the source. Rule for the calls: active = growth percent below 10; inactive = the rest.
Tick one outcome: T (active), F (inactive)

Task: Answer briefly: the call reported for COc1ccc2[nH]c(C(=O)N3CCN(C(=O)OCc4ccc5c(Br)cc(Br)c(O)c5n4)CC3)cc2c1 in this assay.
Result: T

Task: What outcome does the record of this test show for CC(C)C1=NOC(=O)C1=Cc1cn(-c2ccccc2)nc1-c1ccccc1 ?
Result: F

Task: Check the results log: what was the call for CC(C)=CCC[C@](C)(O)[C@H]1CC[C@]2(C)[C@@H]1CC[C@@H]1[C@@]3(C)CC/C(=N/O)C(C)(C)[C@@H]3CC[C@]12C ?
Result: T
